All values here come from ChEMBL document CHEMBL1127418.

test system: HeLa; test: Inhibition of HeLa cell proliferation; details: Homo sapiens
Readout type: pIC50
Reminder that pIC50 means the negative base-10 logarithm of the concentration expressed in mol/L.

[[record]]
compound = "COc1cc2c(c(OC)c1OC)-c1ccc(OC)c(=O)cc1[C@@H](NC(C)=O)CC2 [COLCHICINE]"
result_number = 7.74


Query: // lookup pIC50 for COC(=O)c1cc(CCc2cc(OC)ccc2OC)ccc1O
Response: 6.33

----------
tested on: A-431; experiment: Inhibition of A431 cell proliferation; details: Homo sapiens
Readout type: IC50 (µM)
The figure you give is taken to be in µM; do not add the unit.

[[record]]
query_smiles = "COC(=O)c1cc(CCc2cc(OC)ccc2OC)ccc1O"
unit_annotation = "µM"
result_number = 0.213


Query: // lookup IC50 for COc1cc2c(c(OC)c1OC)-c1ccc(OC)c(=O)cc1[C@@H](NC(C)=O)CC2
Response: 0.014

----------
test system: B16; assay: Inhibition of B16F1 cell proliferation; conditions: Mus musculus
Readout type: pIC50
Reminder that pIC50 means the negative base-10 logarithm of the concentration expressed in mol/L.

Query: // lookup pIC50 for COC(=O)c1cc(CCc2cc(OC)ccc2OC)ccc1O
Response: 6.57

----------
system: P388; experiment: Inhibition of P388 cell proliferation; conditions: Mus musculus
Readout type: pIC50
Reminder that pIC50 means the negative base-10 logarithm of the concentration expressed in mol/L.

[[record]]
query_smiles = "COc1cc2c(c(OC)c1OC)-c1ccc(OC)c(=O)cc1[C@@H](NC(C)=O)CC2"
result_number = 8.02


Query: // lookup pIC50 for COC(=O)c1cc(CCc2cc(OC)ccc2OC)ccc1O
Response: 6.47
